Target: Tyrosyl-tRNA synthetase, putative (Trypanosoma cruzi (strain CL Brener))
Test: Trypanosoma cruzi tyrosyl tRNA synthetase (TcYRS) SOP
Type: functional
Design: scale not given: direction of the effect not stated beside the values
Conditions: 30 µM
OUTCOME_MEASURE: Percent Effect
Note: state the figure and append the unit.

What value of Percent Effect has been recorded for this entry: CC(NCc1c(C(C)C)nn(C)c1N1CCOCC1)C(N)=O (stereo unspecified)
8.43%

Same again, this time with "O=C(NCCCN1CCCCC1)c1ccc(-n2ccc3ccccc32)s1"
1.28%

Same again, this time with COCC1c2nnn(CC3CC3)c2CCN1C(=O)c1ccnnc1 (stereo unspecified)
13.6%

Next:
What value of Percent Effect has been recorded for this entry: "CC1=N[C@@]2(CC[C@@H]3CN(S(=O)(=O)N(C)C)C[C@@H]32)C(=O)N1CC(C)C"
10.3%

Same again, this time with Cc1nc(C)n(C2CCCN(C(=O)Cc3cccnc3)C2)n1 (stereo unspecified)
11%

Same again, this time with Cc1cc(C)nc(Nc2cc(C3CCCN(C)C3)nc(C)n2)n1 (stereo unspecified)
11.7%

---

Molecular target: Tyrosyl-tRNA synthetase, putative (Trypanosoma cruzi (strain CL Brener)) (UniProt Q4DSP6)
Sequence (whole entry): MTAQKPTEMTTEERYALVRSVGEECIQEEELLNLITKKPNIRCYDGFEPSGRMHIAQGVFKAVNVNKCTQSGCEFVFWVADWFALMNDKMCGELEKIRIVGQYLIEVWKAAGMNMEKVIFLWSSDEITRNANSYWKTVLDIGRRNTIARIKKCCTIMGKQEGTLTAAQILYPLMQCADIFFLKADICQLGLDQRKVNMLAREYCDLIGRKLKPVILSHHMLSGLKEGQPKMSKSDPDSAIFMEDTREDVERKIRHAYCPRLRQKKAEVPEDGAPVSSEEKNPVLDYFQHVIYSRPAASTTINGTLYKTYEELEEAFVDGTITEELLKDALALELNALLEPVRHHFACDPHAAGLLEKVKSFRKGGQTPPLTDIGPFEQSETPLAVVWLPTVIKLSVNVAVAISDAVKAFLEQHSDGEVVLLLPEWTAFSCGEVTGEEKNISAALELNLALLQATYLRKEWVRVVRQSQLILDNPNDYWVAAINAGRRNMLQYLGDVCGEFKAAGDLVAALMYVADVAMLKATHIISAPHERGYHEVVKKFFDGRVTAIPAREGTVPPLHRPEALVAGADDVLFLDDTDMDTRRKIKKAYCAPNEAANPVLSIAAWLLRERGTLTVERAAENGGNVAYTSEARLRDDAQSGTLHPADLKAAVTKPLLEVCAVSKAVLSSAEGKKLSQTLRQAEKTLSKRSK
Experiment: Trypanosoma cruzi tyrosyl tRNA synthetase (TcYRS) _High Tyrosine SOP; note: in the data most compounds retested in dose-response had high values
Assay type: functional
Parameters: scale not given: direction of the effect not stated beside the values
Conditions: 30 µM
OUTCOME_MEASURE: Percent Effect (%)
Form entry: value (%) — number only.

Examples from the recorded data:
Look up Percent Effect with Tyrosyl-tRNA synthetase, putative (Trypanosoma cruzi (strain CL Brener)) (UniProt Q4DSP6) for this compound: O=C(C1CCOC1)N1CC[C@@H](O)[C@@H]1Cc1ccccc1 (some centres undefined)
-28

Same again, this time with "COc1ccc(NC(=O)Cn2nc(C)ccc2=O)cc1OC"
3.17

Same again, this time with "NC(=O)CC1CCN(C(=O)NCc2ccccc2-n2cccn2)CC1"
7.89

Same again, this time with "COc1cccc(-c2nccnc2C2CCN(C(C)=O)CC2)c1"
3.23

Same again, this time with "Cc1cc(C[C@@H]2COC[C@@H]2NC(=O)CN2CCCN(C)CC2)on1"
8.6

Next:
Look up Percent Effect with Tyrosyl-tRNA synthetase, putative (Trypanosoma cruzi (strain CL Brener)) (UniProt Q4DSP6) for this compound: CCCS(=O)(=O)NC(C)C(=O)NCc1ccc(N2CCCC2)nc1 (centres undefined)
13.3

Same again, this time with Cn1cccc1C(=O)N1CCCC2(CCN(CCN3CCCC3)C2=O)C1 (centres undefined)
-2.15

---

Molecular target: Tyrosyl-tRNA synthetase, putative (Trypanosoma cruzi (strain CL Brener)) (UniProt Q4DSP6)
Assay: Trypanosoma cruzi tyrosyl tRNA synthetase (TcYRS) _High Tyrosine SOP; note: in the data most compounds retested in dose-response had high values
Assay type: functional
Parameters: scale not given: direction of the effect not stated beside the values
Settings: 30 µM
Param label: returns t when Percent Effect < 4%, returns f otherwise, including exact equality.

Solved entries:
I'd appreciate it if you could check whether CNCC(=O)N1CCC(c2ccnc(Nc3ccc(C)cn3)n2)C1 (configuration not stated) has Percent Effect smaller than 4%.
f

Same again, this time with COc1ccc(C2CC(=O)Nc3c2nc2n3CCCC2)cc1O (configuration not stated)
t

Same again, this time with "Cc1nn(CC(=O)N2CCN(c3ccccc3F)CC2)c(C)c1Cl"
f

Same again, this time with CN(C)C(CNC(=O)c1cccc(-n2cnnn2)c1)c1ccccc1Cl (configuration not stated)
t

Same again, this time with CN(Cc1ccco1)C(=O)CN1CCCCC1Cn1cccn1 (configuration not stated)
f

Next:
I'd appreciate it if you could check whether CN(Cc1ccc(F)cc1)C(=O)NCC1(N2CCOCC2)CCSC1 (configuration not stated) has Percent Effect smaller than 4%.
t

Same again, this time with "CC(=O)NCCNC(=O)c1sc(-c2ccc(C)cc2C)nc1C"
f

Same again, this time with "Cc1ncc2c(n1)CCN(Cc1nc3ccccc3o1)C2"
f

Same again, this time with "COCc1nc(N(C)C)ncc1C(=O)NC(C)C"
t

Same again, this time with CC(C(=O)N1CCCN(c2ncccc2C#N)CC1)n1cccn1 (configuration not stated)
f

Same again, this time with FC(F)(F)Cc1noc(CN2CCCC2c2noc(C3CC3)n2)n1 (configuration not stated)
f

---

Target: Proteasome subunit beta (Trypanosoma cruzi) (UniProt O96673)
Sequence (O96673 as listed by the source): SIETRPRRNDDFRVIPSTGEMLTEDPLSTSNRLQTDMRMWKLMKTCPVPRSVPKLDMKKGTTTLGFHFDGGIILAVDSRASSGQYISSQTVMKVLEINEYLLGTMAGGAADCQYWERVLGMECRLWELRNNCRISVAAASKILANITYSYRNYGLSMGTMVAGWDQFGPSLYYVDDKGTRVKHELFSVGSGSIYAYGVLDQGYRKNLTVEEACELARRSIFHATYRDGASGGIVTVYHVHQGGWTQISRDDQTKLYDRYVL
Assay: Trypanosoma cruzi proteasome chymotrypsin-like activity (TcProtChymo) assay. Note: in the data most compounds retested in dose-response had high values.
Format: functional
Design: scale not given: direction of the effect not stated beside the values
Settings: 9.37 µM
OUTCOME_MEASURE: Percent Effect
Note: state the figure and append the unit.

What value of Percent Effect has been recorded for this entry: "Cc1cc(C)n(-c2ccc(CNCc3ccc(OC(C)C)cc3)cn2)n1"
15.5%

Next:
What value of Percent Effect has been recorded for this entry: "Cc1noc(C2CCN(Cc3cc(=O)n(C)c(=O)n3C)CC2)n1"
13.2%

Same again, this time with "Cc1nc(C)c(C(=O)N2CCC(Nc3cccnc3)CC2)s1"
14.5%

Same again, this time with "CCCn1nc2c(cc1=O)CN(CC(=O)Nc1nnc(C)s1)CC2"
11.8%

Same again, this time with "CCN1C[C@@H]2[C@@H](OC)CCN(S(=O)(=O)c3ccccc3F)[C@@H]2C1"
0.793%

Same again, this time with "Cn1cc(CC(=O)N2CCC(Nc3cccnn3)CC2)c2ccccc21"
5.96%

Same again, this time with CNC(=O)C1(c2cnccn2)CCCN1C(=O)c1ccccc1OC (configuration not stated)
9.36%

Same again, this time with CNC(=O)C1(c2cnccn2)CCCN1C(=O)c1ccn(C)n1 (configuration not stated)
1.4%

Same again, this time with "N#Cc1ccccc1OCCN1CCn2c(nnc2C2CC2)C1"
5.85%

Same again, this time with CC(C)c1ncc(CN2CCCC(CO)C2)cn1 (configuration not stated)
3.59%

---

Target: Tyrosyl-tRNA synthetase, putative (Trypanosoma cruzi (strain CL Brener)) (UniProt Q4DSP6)
Assay: Trypanosoma cruzi tyrosyl tRNA synthetase (TcYRS) SOP
Format: functional
Parameters: scale not given: direction of the effect not stated beside the values
Conditions: 30 µM
Parameter: Percent Effect. Scope: all listed entries.
Form entry: value (%) — number only.

What value of Percent Effect has been recorded for this entry: CC1CN(c2ccc(CNC(=O)c3ccn(C)c(=O)c3)cn2)CCO1 (stereo not drawn)
15.4

Same again, this time with CCc1nccn1C1CCCN(C(=O)c2ccc3nncn3c2)C1 (stereo not drawn)
19.5

Same again, this time with "Cc1cc(NS(=O)(=O)c2ccccc2F)ccc1-n1cccc1C(=O)O"
0

Same again, this time with "O=C(COc1coc(CN2CCCCC2)cc1=O)NCc1ccccc1"
10.4

Same again, this time with Cc1cc2n(n1)CC(CNCc1ccc(-n3cccn3)nc1)CN2 (stereo not drawn)
21.9

Next:
What value of Percent Effect has been recorded for this entry: CC(C)c1nccn1-c1cccc(C2CCCN(C3CCCC3)C2)n1 (stereo not drawn)
17.5

Same again, this time with CN(Cc1ccc(F)cc1)CC1(O)CCN(C(=O)c2ccccc2)C1 (stereo not drawn)
6.49

Same again, this time with COCCc1noc(CN2CCCC2c2c(C)nn(C)c2C)n1 (stereo not drawn)
2.56

Same again, this time with "CCc1ccc(C(=O)N2CCC(c3nncn3CC)CC2)cc1"
15.6

Same again, this time with COCCN1CCCC1c1nccnc1Nc1nc(C)cs1 (stereo not drawn)
15

Same again, this time with CC(Oc1ccccc1C(F)(F)F)C(=O)NS(=O)(=O)C(C)C (stereo not drawn)
11

---

Parameter: Percent Effect. Scope: all listed entries.
Biological target: Chromo domain-containing protein 1 (Saccharomyces cerevisiae (strain ATCC 204508 / S288c) (Baker's yeast))
Assay: ScCHD-1 Enzyme Inhibition Assay; note: in the data most compounds retested in dose-response had high values
Format: functional
Set-up: scale not given: direction of the effect not stated beside the values
Settings: 30 µM
Form entry: value (%) — number only.

Examples from the recorded data:
What value of Percent Effect has been recorded for this entry: "Cn1ccc(NC(=O)Cc2cccc(F)c2)n1"
113

Same again, this time with "O=C(NCCC1=CCCCC1)C1CCN(c2ccc3nncn3n2)CC1"
2.87

Same again, this time with CCc1nc(C2CCCN2CC(=O)Nc2c(C)n[nH]c2C)no1 (stereo not drawn)
-0.363

Same again, this time with "C[C@]1(O)CCN(Cc2cncs2)C[C@@H]1Oc1cccc(F)c1"
-19.6

Same again, this time with CN(C)CC1CN(Cc2ccc3c(c2)OCO3)Cc2nccn2C1 (stereo not drawn)
-1.33

Next:
What value of Percent Effect has been recorded for this entry: "Cc1cccc(C)c1NC(=O)CCNC(=O)c1ccoc1"
-8.58

Same again, this time with "CS(=O)(=O)NCc1cc2n(n1)CCCN(Cc1nc3ccccc3[nH]1)C2"
3.52

Same again, this time with CN(Cc1noc(C2CC2)n1)C1CCN(Cc2nnc(C3CC3)o2)C1 (stereo not drawn)
-8.04
